All figures here come from ChEMBL document CHEMBL1130247.

Tested on: Enterovirus C
test.description: Antiviral activity against poliovirus 1
Type: functional, organism-based
Classification by IC50 follows these ranges: bottom bin: < 0.04 µg/mL; middle bin: ≥ 0.04 µg/mL and < 0.08 µg/mL; top bin: ≥ 0.08 µg/mL

Consider the worked cases shown below.
{"smi": "C#C/C=C(\\c1cc(F)cc(F)c1)c1ccc2nc(N)n(S(=O)(=O)C(C)C)c2c1", "subject.of.test": "Enterovirus C", "assigned.class": "top bin"}
{"smi": "C#C/C=C(\\c1ccc(OC)c(F)c1)c1ccc2nc(N)n(S(=O)(=O)C(C)C)c2c1", "subject.of.test": "Enterovirus C", "assigned.class": "bottom bin"}
{"smi": "C#C/C=C(\\c1cccc(F)c1)c1ccc2nc(N)n(S(=O)(=O)C(C)C)c2c1", "subject.of.test": "Enterovirus C", "assigned.class": "bottom bin"}
{"smi": "C#C/C=C(\\c1ccc(N(C)C)cc1)c1ccc2nc(N)n(S(=O)(=O)C(C)C)c2c1", "subject.of.test": "Enterovirus C", "assigned.class": "middle bin"}
{"smi": "C#C/C=C(\\c1ccccc1)c1ccc2nc(N)n(S(=O)(=O)C(C)C)c2c1", "subject.of.test": "Enterovirus C", "assigned.class": "bottom bin"}
{"smi": "C#C/C=C(/c1ccc2nc(N)n(S(=O)(=O)C(C)C)c2c1)c1ccccc1F", "subject.of.test": "Enterovirus C", "assigned.class": "middle bin"}
{"smi": "CC#C/C=C(\\c1cccc(F)c1)c1ccc2nc(N)n(S(=O)(=O)C(C)C)c2c1", "subject.of.test": "Enterovirus C", "assigned.class": "top bin"}
{"smi": "C#C/C=C(\\c1cccc(F)c1)c1ccc2nc(N)n(S(=O)(=O)N(C)C)c2c1", "subject.of.test": "Enterovirus C", "assigned.class": "middle bin"}

Please let me know in which category the item `C#C/C=C(\c1cccc(Cl)c1)c1ccc2nc(N)n(S(=O)(=O)C(C)C)c2c1` belongs.
top bin

Band assignment needed for `C#C/C=C(\c1ccc(F)cc1)c1ccc2nc(N)n(S(=O)(=O)C(C)C)c2c1` please.
middle bin

Which class holds `C#C/C=C(\c1ccc(OC(F)(F)F)cc1)c1ccc2nc(N)n(S(=O)(=O)C(C)C)c2c1` ?
top bin

Into which category would you place `C#C/C=C(/c1ccc2nc(N)n(S(=O)(=O)C(C)C)c2c1)c1cc(F)ccc1F` ?
bottom bin
